target: Beta-secretase 1 (Homo sapiens); assay: Inhibition of human BACE1 at 0.2 uM by FRET assay
Sequence (P56817 whole entry): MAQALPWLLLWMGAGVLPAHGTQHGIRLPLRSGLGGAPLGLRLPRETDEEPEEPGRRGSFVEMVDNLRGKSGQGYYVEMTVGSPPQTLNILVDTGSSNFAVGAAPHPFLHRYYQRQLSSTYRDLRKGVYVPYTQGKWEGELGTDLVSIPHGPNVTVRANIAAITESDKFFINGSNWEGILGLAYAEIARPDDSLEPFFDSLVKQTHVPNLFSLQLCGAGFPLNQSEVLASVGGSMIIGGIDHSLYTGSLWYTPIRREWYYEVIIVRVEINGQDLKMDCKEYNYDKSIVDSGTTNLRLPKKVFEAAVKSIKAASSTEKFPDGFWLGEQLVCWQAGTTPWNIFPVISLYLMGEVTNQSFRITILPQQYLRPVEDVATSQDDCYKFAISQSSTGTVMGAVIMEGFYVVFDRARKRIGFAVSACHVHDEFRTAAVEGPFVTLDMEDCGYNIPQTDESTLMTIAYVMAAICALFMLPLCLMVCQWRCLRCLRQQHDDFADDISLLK
Note to self: values exactly at 90% are t. So inhibition at or above 90% is t, below is f.

Reference set (3 entries):
>  <structure.as.smiles>
CC(C)[C@H](NC(=O)[C@@H](N)CNC(=O)c1c[nH]cn1)C(=O)N[C@@H](CC1CCCCC1)C(=O)N[C@@H](Cc1ccccc1)[C@@H](O)C(=O)Nc1cccc(-c2nn[nH]n2)c1

>  <system.under.test>
Beta-secretase 1 (Homo sapiens)

>  <label.value>
f

$$$$
>  <structure.as.smiles>
CC(C)C[C@H](NC(=O)[C@@H](NC(=O)[C@@H](N)CNC(=O)c1[nH]c(=O)[nH]c(=O)c1F)C(C)C)C(=O)N[C@@H](Cc1ccccc1)[C@@H](O)C(=O)Nc1cccc(-c2noc(=S)[nH]2)c1

>  <system.under.test>
Beta-secretase 1 (Homo sapiens)

>  <label.value>
t

$$$$
>  <structure.as.smiles>
CC(C)C[C@H](NC(=O)[C@@H](NC(=O)[C@@H](N)CNC(=O)c1[nH]c(=O)[nH]c(=O)c1F)C(C)C)C(=O)N[C@@H](Cc1ccccc1)[C@@H](O)C(=O)Nc1cccc(-c2nsc(=O)[nH]2)c1

>  <system.under.test>
Beta-secretase 1 (Homo sapiens)

>  <label.value>
t

$$$$

Exercise: Record CC(C)C[C@H](NC(=O)[C@@H](NC(=O)[C@@H](N)CNC(=O)c1[nH]c(=O)[nH]c(=O)c1F)C(C)C)C(=O)N[C@@H](Cc1ccccc1)[C@@H](O)C(=O)Nc1cccc(-c2noc(=O)[nH]2)c1 ; criterion: inhibition no lower than 90%. Met?
Solution: t

Exercise: Record CC(C)C[C@H](NC(=O)[C@@H](NC(=O)[C@@H](N)CNC(=O)c1c[nH]cn1)C(C)C)C(=O)N[C@@H](Cc1ccccc1)[C@@H](O)C(=O)Nc1cccc(-c2nn[nH]n2)c1 ; criterion: inhibition no lower than 90%. Met?
Solution: f

Exercise: Record CC(C)C[C@H](NC(=O)[C@@H](NC(=O)[C@@H](N)CNC(=O)c1[nH]c(=O)[nH]c(=O)c1F)C(C)C)C(=O)N[C@@H](Cc1ccccc1)[C@@H](O)C(=O)Nc1cccc(-c2n[nH]c(=S)o2)c1 ; criterion: inhibition no lower than 90%. Met?
Solution: t

Source listed as ChEMBL document CHEMBL1158556.
